- System: Helicobapter pylori
- procedureText: Minimal inhibiting concentration (agar dilution)
- Assay type: cell-based
- experimentalContext: strain 7
propertyMeasured: MIC (µg/mL)
Numeric only. Scale: µg/mL

Using the record for Cc1cc(C(O)c2ncc([N+](=O)[O-])n2C)c(O)c(C(C)(C)C)c1 (stereo not shown) , state its measured MIC.
0.06

Using the record for COc1cc(C(O)c2ncc([N+](=O)[O-])n2C)c(O)c(C(C)(C)C)c1 (stereo not shown) , state its measured MIC.
0.06

Using the record for Cn1c([N+](=O)[O-])cnc1C(O)c1cc(C(C)(C)C)cc(C(C)(C)C)c1O (stereo not shown) , state its measured MIC.
0.25

Using the record for Cc1ncc([N+](=O)[O-])n1CCO [Metronidazole, reference compound] , state its measured MIC.
0.25
